# System: OVCAR-5 ovarian
# Assay explanation: NCI-60 one-dose screen, 48 h (100 = growth as untreated, 0 = no growth, -100 = all killed)
# Reported conditions: 10 µM
The panel holds about 83,000 compounds, 20% with a hit somewhere; the sample as a whole holds those more often.
Listed compounds paired with reported growth
Express the result in % but write the number alone.

Examples with answers:
| Compound | Data value |
| --- | --- |
| O=C(O)C(SC(C(=O)O)c1ccccc1)c1ccccc1 (stereo not given) | 106 |
| COc1ccc(Nc2ccnc(NCCNc3ccnc4cc(Cl)ccc34)n2)cc1 | 51.2 |

growth for OVCAR-5 ovarian with input `COc1cc(-c2cc(/C=C/C(=O)c3ccc(Cl)c(Cl)c3)[nH]n2)cc(OC)c1OC` equals 81.9

Here `Clc1ccccc1N=Cc1ccc2c(c1)OCO2` was tested on OVCAR-5 ovarian, and its growth came to 105

Entry `CCN1Cc2c(/C=C/c3ccccc3)nc3ccc(OC)cc3c2N(c2cccc(Cl)c2)C1` ; assay system OVCAR-5 ovarian; growth recorded at 95.4

`CCOC(=O)N1C/C(=C/c2ccc(OC)cc2)C(=O)/C(=C/c2ccc(OC)cc2)C1` on OVCAR-5 ovarian gives growth = 95

Item COc1cc([C@@H]2c3cc4c(cc3C(Br)[C@H]3COC(=O)[C@H]23)OCO4)cc(OC)c1OC (stereo not given in full) was tested on OVCAR-5 ovarian; the reported growth is 24.7

GET /values?item= `COc1cc(Cl)cc(-c2nn(-c3cccc(NC(=O)Nc4ccc(Cl)c(C(F)(F)F)c4)c3)cc2-c2ccncc2)c1` &system= OVCAR-5 ovarian returns growth: 19.2

Summary: c1ccc(C(NC2CC3CCC2C3)c2ccccc2)cc1 (stereo not given) , OVCAR-5 ovarian, growth = 101

Kindly note: OVCAR-5 ovarian, `Nc1c(C(=O)Nc2cccc(F)c2)sc2nc3c(cc12)C(=O)CCC3` , growth value reported: 38.2

The observed growth for `CC1(C)Cc2c(sc3ncn4nc(-c5ccc(O)cc5)nc4c23)CO1` when tested with OVCAR-5 ovarian stands at 86.6

Noted growth for `Fc1cc(C(F)(F)F)ccc1-c1cncnc1NC1CCCCCC1` , tested on OVCAR-5 ovarian: 106

Lab note: compound `CC/C(=N\N=C(/CC)c1ccc(Br)cc1)c1ccc(Br)cc1` tested on OVCAR-5 ovarian; recorded growth was 92.4

Lab note: compound `COc1cc(/C=N/NC(=O)c2ccccc2Nc2cccc(C(F)(F)F)c2)cc(OC)c1OC` tested on OVCAR-5 ovarian; recorded growth was 62.1

Value sought: growth, system OVCAR-5 ovarian, item `FC(F)(F)c1ccc2nc(-c3nc(-c4ccccc4)n4ccccc34)[nH]c2c1` . Result: 85.6
